Assay: soluble fraction after stress (log2 fold change); higher = more stays soluble; pooled small domains, quantitative proteomics
Conditions: stress: pH 4
readout name: soluble fraction (log2)
Number, no unit, nothing else.

Examples with their reported soluble fraction (log2) follow.
[
  {
    "seq text": "HMSALAEELIKKNQAMILTIKPRDTIWGIANRFQSPPSEKFINQIIELNQVDPYRLRIGQDLLIPLN",
    "reading": 0.00792
  },
  {
    "seq text": "HMTKYEKKIFEIVNASRDHLTAEQVLAALREEYPAVSQATVYNNLKKLTSDGLLRKLTLADSPDRYD",
    "reading": 0.211
  },
  {
    "seq text": "HMEKERYDTGIGELNRVLGGGLVKGSLILISGDPGIGKSTLLLQTANNISKKYGKVLYVSGEESEEQIKIR",
    "reading": -0.722
  },
  {
    "seq text": "HMEQRREEFILLAKELLEKELRKQNLEVHENLKPDVLNDVAKRLGMVSMDDLLAAVGDGKITPGTVVSKIV",
    "reading": -0.389
  },
  {
    "seq text": "HMALLSDEERIATVFAARLGGYSHQEIYKLLQDRFGPSLPAAYSEKSVLTDLQTALSQVPSL",
    "reading": -1.41
  },
  {
    "seq text": "HMGGGTPEERLATLAAIAERQEMLLERLGPNNPLVSLGQYSRTLSRMVQLAGFKDASQYFNELPLDFQMPE",
    "reading": -0.437
  },
  {
    "seq text": "HMLQIADEYLDRLQALFEDVRDNHFAIGDLLVELVDMHDSRRVDVINYIAGRLAISPTTLYDYENTARR",
    "reading": -0.966
  }
]

// below: soluble fraction (log2) requested for another sequence
IN: Give the measured soluble fraction (log2) of HMNPEDDLLKAIIMKYFSNAQVQVDKNVIEYLLKRVDRDYQNLYNILEKINILSLQRKSKITTHLIRDIM .
OUT: -0.624

###

Experiment: soluble fraction after stress (log2 fold change); higher = more stays soluble; pooled small domains, quantitative proteomics
Details: stress: pH 4
Parameter soluble fraction (log2): see the listing below.
Number, no unit, nothing else.

IN: Give the measured soluble fraction (log2) of HMFTDEELEHIRSALIQAGIRLSKELGLQKMSVEKLTAAVGIAKGSFYMFFGSKEDFILEVAEYTGAQ .
OUT: -0.679

IN: Give the measured soluble fraction (log2) of HMPRSREVHVEPGMVLEDVTTGFVGAVIRTEKSAGIYVIELEDRRGRRRSFPLGGGFWLDGRPIIALPPLP .
OUT: 0.281

IN: Give the measured soluble fraction (log2) of HMKTITLDEAQEIALAEVDGKVTRAVEETDDGRSYYEFDIITNDQKHELEVDASSGKITKNEIDEDYVPS .
OUT: -0.0471

IN: Give the measured soluble fraction (log2) of HMGIRQGKVTSTFVNVRSGASTANAKVGELHKGDVVSLIEKVANFWRIGPGQFVSADYIQVLAS .
OUT: -0.0122

IN: Give the measured soluble fraction (log2) of HMQEPVHFTRRERQVLSLILSGQATAEIAKTLGIANATVTTYKKSLYSKSGTNSLSRLLIWAMVRR .
OUT: -0.332

###

Parameter soluble fraction (log2): see the listing below.
Test: soluble fraction after stress (log2 fold change); higher = more stays soluble; pooled small domains, quantitative proteomics
Conditions: stress: pH 4
Number, no unit, nothing else.

Examples with their reported soluble fraction (log2) follow.
[
  {
    "seq text": "HMDSLIEYENERSLRRLINENLSDYERTVWWLYYAGADAAHIAEQTGRSKRSAENAITRVRRKLRALITQS",
    "reading": -0.188
  },
  {
    "seq text": "HMDYEVPEELQQKFEEFPRLKEAFYQLTPGRQHQYLYYFSQAKRSQTRYNRIDKYMNAILQGKGMK",
    "reading": 0.167
  },
  {
    "seq text": "HMYSQEEKRYMEIMEIKPQELSAENLKKQYKKLVKKYHPDLHQDDKQAAEEKFKQLTNAYQVLMRRF",
    "reading": -0.0526
  },
  {
    "seq text": "HMQITAPVQKIDGVEYYMHKVEQGQTLYSISKLYNVGVKEIQKANQLGTEGIQLGQVLKVRKGG",
    "reading": 0.00111
  },
  {
    "seq text": "HMNQTPQISYSQFIADVRSGQIKDVNIDSDNRTIVGHKFSGEEFTTFSPGDNKLVDELLNYNVEIKTSP",
    "reading": -0.125
  },
  {
    "seq text": "HMTLGSVRTVRQVLDDGRLLVADSGGNVTLVRRAGTLAKENVNTGDRVSVDSSVRFALTLIPV",
    "reading": -0.00374
  },
  {
    "seq text": "HMSTSERLKQVMEVKGFNLKTFSEQADIPYRTLQNYILTNREPSAESLAKLHSQLGINLNWLMSGKGEMF",
    "reading": 0.109
  },
  {
    "seq text": "HMEELTDSELNNLYRELFIARSNASDGVGIIEQKTIKGITYRLSNDNNYLIKELGNKEYIYKNGVWEEYT",
    "reading": 0.0623
  }
]

// below: soluble fraction (log2) requested for another sequence
IN: Give the measured soluble fraction (log2) of HMKMVEIDYGKFLTMLDTGKVKSVEIENNRIAINPSSSKDKNIYITGRMDDPELVDRLKNAKVEFTKVIP .
OUT: -0.0394
